# study.target: von Hippel-Lindau disease tumor suppressor/Inactive tyrosine-protein kinase transmembrane receptor ROR1 (Homo sapiens, UniProt P40337+Q01973)
# Sequence (P40337 whole entry): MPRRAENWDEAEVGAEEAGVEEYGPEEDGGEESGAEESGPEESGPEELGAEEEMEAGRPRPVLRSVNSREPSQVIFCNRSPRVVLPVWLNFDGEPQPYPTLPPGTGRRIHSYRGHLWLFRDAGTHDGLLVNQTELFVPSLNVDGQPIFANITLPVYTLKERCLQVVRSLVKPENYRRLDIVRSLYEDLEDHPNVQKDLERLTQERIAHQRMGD
# Sequence (Q01973 30-937 partner limits assumed): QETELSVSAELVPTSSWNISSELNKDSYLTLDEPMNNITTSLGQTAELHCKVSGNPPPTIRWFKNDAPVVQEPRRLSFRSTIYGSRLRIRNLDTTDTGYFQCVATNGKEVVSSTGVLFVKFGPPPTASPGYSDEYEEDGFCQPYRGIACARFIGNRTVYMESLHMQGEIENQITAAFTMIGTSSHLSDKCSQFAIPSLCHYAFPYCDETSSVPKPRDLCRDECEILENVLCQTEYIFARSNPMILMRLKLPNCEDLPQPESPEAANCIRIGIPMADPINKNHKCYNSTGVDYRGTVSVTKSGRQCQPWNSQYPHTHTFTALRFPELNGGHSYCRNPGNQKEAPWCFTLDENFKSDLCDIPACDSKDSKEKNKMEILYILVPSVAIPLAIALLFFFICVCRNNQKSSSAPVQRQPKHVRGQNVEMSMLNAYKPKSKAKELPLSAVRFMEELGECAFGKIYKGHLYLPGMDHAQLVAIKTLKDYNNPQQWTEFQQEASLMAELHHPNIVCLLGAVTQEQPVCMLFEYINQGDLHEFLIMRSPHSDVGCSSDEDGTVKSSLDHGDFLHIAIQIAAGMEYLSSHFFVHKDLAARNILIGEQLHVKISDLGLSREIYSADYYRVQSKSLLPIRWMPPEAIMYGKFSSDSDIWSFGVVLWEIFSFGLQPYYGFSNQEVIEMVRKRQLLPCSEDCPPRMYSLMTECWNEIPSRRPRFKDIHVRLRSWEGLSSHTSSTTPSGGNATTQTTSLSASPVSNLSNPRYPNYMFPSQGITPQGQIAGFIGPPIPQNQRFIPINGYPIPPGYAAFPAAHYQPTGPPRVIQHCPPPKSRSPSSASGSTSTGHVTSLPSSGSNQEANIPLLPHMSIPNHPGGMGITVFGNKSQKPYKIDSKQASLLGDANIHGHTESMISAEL
# test.summary: PROTAC activity at VHL/ROR1 in human NCI-H23 cells assessed as induction of ROR1 degradation at 1 uM incubated for 24 hrs by Western blot analysis relative to control
# Type: cell-based
Decide using Activity: a value greater than or equal to 80% is MET, a smaller one is NOT MET.

CCN1CCC(Nc2c(Br)cnc3[nH]c(-c4ccc(N5CCN(C(=O)CCCCCCCCCCC(=O)N[C@H](C(=O)N6C[C@H](O)C[C@H]6C(=O)NCc6ccc(-c7scnc7C)cc6)C(C)(C)C)CC5)cc4)nc23)CC1 MET

### Prompt Reported Activity at or above 80%? CCN1CCC(Nc2c(Br)cnc3[nH]c(-c4ccc(N5CCN(C(=O)CCCCCCCCC(=O)N[C@H](C(=O)N6C[C@H](O)C[C@H]6C(=O)NCc6ccc(-c7scnc7C)cc6)C(C)(C)C)CC5)cc4)nc23)CC1
### Response MET

### Prompt Now this one: CCN1CCC(Nc2c(Br)cnc3[nH]c(-c4ccc(N5CCN(CCCCCCCCCC(=O)N[C@H](C(=O)N6C[C@H](O)C[C@H]6C(=O)NCc6ccc(-c7scnc7C)cc6)C(C)(C)C)CC5)cc4)nc23)CC1
### Response MET

### Prompt Now this one: CCN1CCC(Nc2c(Br)cnc3[nH]c(-c4ccc(N5CCN(CC(=O)N[C@H](C(=O)N6C[C@H](O)C[C@H]6C(=O)NCc6ccc(-c7scnc7C)cc6)C(C)(C)C)CC5)cc4)nc23)CC1
### Response NOT MET

### Prompt Now this one: CCN1CCC(Nc2c(Br)cnc3[nH]c(-c4ccc(N5CCN(CCCC(=O)N[C@H](C(=O)N6C[C@H](O)C[C@H]6C(=O)NCc6ccc(-c7scnc7C)cc6)C(C)(C)C)CC5)cc4)nc23)CC1
### Response NOT MET

### Prompt Now this one: CCN1CCC(Nc2c(Br)cnc3[nH]c(-c4ccc(N5CCN(C(=O)CCCCCCC(=O)N[C@H](C(=O)N6C[C@H](O)C[C@H]6C(=O)NCc6ccc(-c7scnc7C)cc6)C(C)(C)C)CC5)cc4)nc23)CC1
### Response MET

###

Attribute: Activity
# study.target: Protein cereblon/Inactive tyrosine-protein kinase transmembrane receptor ROR1 (Homo sapiens) (UniProt Q96SW2+Q01973)
# Sequence (Q01973 whole entry, looked up): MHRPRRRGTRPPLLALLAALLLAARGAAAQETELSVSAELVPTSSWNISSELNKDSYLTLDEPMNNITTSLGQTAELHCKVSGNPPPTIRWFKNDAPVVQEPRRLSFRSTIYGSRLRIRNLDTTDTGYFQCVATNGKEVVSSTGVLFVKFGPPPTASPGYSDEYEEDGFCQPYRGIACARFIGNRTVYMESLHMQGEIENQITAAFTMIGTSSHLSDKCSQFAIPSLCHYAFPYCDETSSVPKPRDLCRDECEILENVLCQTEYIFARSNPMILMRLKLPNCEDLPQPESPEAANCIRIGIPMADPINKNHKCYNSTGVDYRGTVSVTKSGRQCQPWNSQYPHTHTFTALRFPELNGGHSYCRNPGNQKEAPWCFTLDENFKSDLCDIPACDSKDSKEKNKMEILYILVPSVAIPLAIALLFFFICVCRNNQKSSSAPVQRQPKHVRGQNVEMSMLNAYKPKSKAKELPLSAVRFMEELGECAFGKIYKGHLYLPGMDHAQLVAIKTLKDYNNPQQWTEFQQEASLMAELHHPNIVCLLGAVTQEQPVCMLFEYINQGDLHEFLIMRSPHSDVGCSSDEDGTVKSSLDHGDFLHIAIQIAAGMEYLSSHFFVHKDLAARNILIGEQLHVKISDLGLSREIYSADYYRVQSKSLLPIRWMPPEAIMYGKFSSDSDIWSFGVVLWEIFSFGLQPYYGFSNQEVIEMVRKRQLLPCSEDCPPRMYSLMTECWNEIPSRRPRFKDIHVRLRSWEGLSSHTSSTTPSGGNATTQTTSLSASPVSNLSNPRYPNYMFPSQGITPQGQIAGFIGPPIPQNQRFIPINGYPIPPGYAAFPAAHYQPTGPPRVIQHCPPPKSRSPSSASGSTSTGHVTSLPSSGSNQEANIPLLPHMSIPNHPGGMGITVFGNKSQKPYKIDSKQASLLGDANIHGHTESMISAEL
# Sequence (Q96SW2 whole entry, looked up): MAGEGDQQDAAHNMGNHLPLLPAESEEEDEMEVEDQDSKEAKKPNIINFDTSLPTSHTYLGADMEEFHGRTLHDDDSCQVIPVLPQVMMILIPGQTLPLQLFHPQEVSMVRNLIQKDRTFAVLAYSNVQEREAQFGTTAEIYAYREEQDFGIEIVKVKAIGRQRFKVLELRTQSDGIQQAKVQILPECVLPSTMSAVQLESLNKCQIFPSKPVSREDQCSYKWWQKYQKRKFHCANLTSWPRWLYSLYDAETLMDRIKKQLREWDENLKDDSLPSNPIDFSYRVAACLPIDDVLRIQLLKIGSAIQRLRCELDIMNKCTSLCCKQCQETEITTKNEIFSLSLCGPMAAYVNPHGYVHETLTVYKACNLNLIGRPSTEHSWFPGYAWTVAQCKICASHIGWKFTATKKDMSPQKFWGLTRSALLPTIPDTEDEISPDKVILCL
# test.summary: PROTAC activity at CRBN/ROR1 in human NCI-H23 cells assessed as induction of ROR1 degradation at 1 uM incubated for 24 hrs by Western blot analysis relative to control
# Format: cell-based
Express your answer in %, writing the number without its unit.

Worked examples, 2 compounds total:
compound	Activity / %
CCN1CCC(Nc2c(Br)cnc3[nH]c(-c4ccc(N5CCN(C(=O)CCCOc6ccc7c(c6)C(=O)N(C6CCC(=O)NC6=O)C7=O)CC5)cc4)nc23)CC1 (stereo not drawn)	87.3
CCN1CCC(Nc2c(Br)cnc3[nH]c(-c4ccc(N5CCN(C(=O)CCCCCCCOc6cccc7c6C(=O)N(C6CCC(=O)NC6=O)C7=O)CC5)cc4)nc23)CC1 (stereo not drawn)	0

### Prompt Quick check: Activity of CCN1CCC(Nc2c(Br)cnc3[nH]c(-c4ccc(N5CCN(C(=O)CCCCCNc6ccc7c(c6)C(=O)N(C6CCC(=O)NC6=O)C7=O)CC5)cc4)nc23)CC1 (stereo not drawn) ?
### Response 87.2
